What MBC was measured for each of the following?
System: S. aureus (AD3)
test-protocol: MIC and MBC, broth dilution, S. aureus AD3
Assay type: cell-based
stated-conditions: Staphylococcus aureus; S. aureus AD3 (clinical strain)
Experimental: The synthesized pleuromutilin derivatives 8–30 were tested against four Gram-positive bacteria (MRSA ATCC 43300, S. aureus ATCC 29213 and two clinical strains of S. aureus (AD3 and 144) isolated from Guangdong Province). Tiamulin was used as the positive control in this experiment. MIC values were tested following our previous work. […] The MIC value was recorded as the minimal concentration that inhibits the visible growth of tested bacteria completely. […]
Quick note: number first, unit second.

Consider the molecule shown here: C=C[C@]1(C)C[C@@H](OC(=O)CSCCN(CC)CC)[C@]2(C)[C@H](C)CC[C@]3(CCC(=O)[C@H]32)[C@@H](C)[C@@H]1O [Tiamulin, tiamulin, reference compound] What is its recorded MBC?
1 µg/mL

Consider the molecule shown here: `C=C[C@]1(C)C[C@@H](OC(=O)CNc2cccc(Br)c2)[C@]2(C)[C@H](C)CC[C@]3(CCC(=O)[C@H]32)[C@@H](C)[C@@H]1O` What is its recorded MBC?
1 µg/mL

Consider the molecule shown here: `C=C[C@]1(C)C[C@@H](OC(=O)CNCCc2cccs2)[C@]2(C)[C@H](C)CC[C@]3(CCC(=O)[C@H]32)[C@@H](C)[C@@H]1O` What is its recorded MBC?
16 µg/mL

Consider the molecule shown here: `C=C[C@]1(C)C[C@@H](OC(=O)CNCc2ccccc2F)[C@]2(C)[C@H](C)CC[C@]3(CCC(=O)[C@H]32)[C@@H](C)[C@@H]1O` What is its recorded MBC?
8 µg/mL

Consider the molecule shown here: `C=C[C@]1(C)C[C@@H](OC(=O)CNCCS(C)(=O)=O)[C@]2(C)[C@H](C)CC[C@]3(CCC(=O)[C@H]32)[C@@H](C)[C@@H]1O` What is its recorded MBC?
4 µg/mL

Consider the molecule shown here: `C=C[C@]1(C)C[C@@H](OC(=O)CNCCc2ccccc2)[C@]2(C)[C@H](C)CC[C@]3(CCC(=O)[C@H]32)[C@@H](C)[C@@H]1O` What is its recorded MBC?
8 µg/mL
